Would you mind telling me the reported melting point of each entry?
// units = °C; emit number, no label

## Task # melting point lookup, item C=C1CCC2[C@](C)(COC(=O)CC)[C@H](OC(=O)CC)CC[C@]2(C)[C@H]1C/C=C1/C(=O)OC[C@H]1OC(=O)CNC(=O)OC(C)(C)C (some centres unmarked)
## Result 65

## Task # melting point lookup, item C=C1CCC2[C@](C)(CO)[C@H](O)CC[C@]2(C)[C@H]1C/C=C1/C(=O)OC[C@H]1OC(=O)NC(C)C (some centres unmarked)
## Result 122

## Task # melting point lookup, item C=C1CCC2[C@]3(C)COC(C)(C)O[C@@H]3CC[C@]2(C)[C@H]1C/C=C1/C(=O)OC[C@H]1OC(=O)[C@H](CCSC)NC(=O)OC(C)(C)C (some centres unmarked)
## Result 70

## Task # melting point lookup, item C=C1CCC2[C@](C)(CO)[C@H](O)CC[C@]2(C)[C@H]1C/C=C1/C(=O)OC[C@H]1OC(=O)/C=C/c1ccccc1 (some centres unmarked) [Example 11, 14-Cinnamoyl andrographolide]
## Result 77

## Task # melting point lookup, item C=C1CCC2[C@](C)(CO)[C@H](O)CC[C@]2(C)[C@H]1C/C=C1/C(=O)OC[C@H]1OCc1ccccc1 (some centres unmarked) [Example 15, 14-Benzyl andrographolide]
## Result 141

## Task # melting point lookup, item C=C1CCC2[C@](C)(CO)[C@H](O)CC[C@]2(C)[C@H]1C/C=C1/C(=O)OC[C@H]1OC(C)=O (some centres unmarked) [Example 7, 14-acetyl andrographolide]
## Result 169

## Task # melting point lookup, item C=C1CCC2[C@](C)(CO)[C@H](O)CC[C@]2(C)[C@H]1C/C=C1/C(=O)OC[C@H]1OC(=O)Nc1ccccc1 (some centres unmarked) [Example 9, 14-phenylcarbamoyl andrographolide]
## Result 120

## Task # melting point lookup, item C=C1CCC2[C@](C)(CO)[C@H](O)CC[C@]2(C)[C@H]1C/C=C1/C(=O)OC[C@H]1OC(=O)C(C)(C)C (some centres unmarked) [Example 13, 14-Pivaloyl andrographolide]
## Result 172.7

## Task # melting point lookup, item C=C1CCC2[C@](C)(CO)[C@H](O)CC[C@]2(C)[C@H]1C/C=C1/C(=O)OC[C@H]1OC(=O)C(C)C (some centres unmarked) [Example 12, 14-Isopropanoyl andrographolide]
## Result 122.6

## Task # melting point lookup, item C=C1CCC2[C@](C)(COC(=O)CC)C(OC(=O)CC)CC[C@]2(C)[C@H]1C/C=C1/C(=O)OCC1OC(=O)/C=C/c1ccc(OC)c(OC)c1 (some centres unmarked)
## Result 85.4

## Task # melting point lookup, item C=C1CC[C@@H]2[C@]3(C)COC(C)(C)O[C@@H]3CC[C@@]2(C)[C@@H]1C/C=C1/C(=O)OC[C@H]1O [Example 1, 3,19-isopropylidene andrographolide]
## Result 194.5

---

Would you mind telling me the reported GI50 of each entry?
tested on: UACC62; test: Sulforhodamine B growth inhibition, melanoma UACC62; format: cell-based, human; details: Homo sapiens, UACC-62, 48 h, SRB, read-out: GROWTH INHIBITION (GI 50)
// units = µM; emit number, no label

## Task # GI50 lookup, item C=C1CCC2[C@](C)(CO)[C@H](O)CC[C@]2(C)[C@H]1C/C=C1/C(=O)OC[C@H]1OC(=O)Nc1ccccc1 (some centres unmarked) [Example 9, 14-phenylcarbamoyl andrographolide]
## Result 3

## Task # GI50 lookup, item C=C1CC[C@@H]2[C@]3(C)COC(C)(C)O[C@@H]3CC[C@@]2(C)[C@@H]1C/C=C1/C(=O)OC[C@H]1O [Example 1, 3,19-isopropylidene andrographolide]
## Result 4

## Task # GI50 lookup, item C=C1CCC2[C@](C)(CO)[C@H](O)CC[C@]2(C)[C@H]1C/C=C1/C(=O)OC[C@H]1OCc1ccccc1 (some centres unmarked) [Example 15, 14-Benzyl andrographolide]
## Result 3.5

## Task # GI50 lookup, item C=C1CCC2[C@](C)(CO)[C@H](O)CC[C@]2(C)[C@H]1C/C=C1/C(=O)OC[C@H]1OC(=O)c1ccccc1 (some centres unmarked) [Example 14, 14-Benzoyl andrographolide]
## Result 3

## Task # GI50 lookup, item C=C1CCC2[C@]3(C)COC(C)(c4ccccc4)O[C@@H]3CC[C@]2(C)[C@H]1C/C=C1/C(=O)OC[C@H]1O (some centres unmarked) [Example 3, 3,19-(1-Phenylethylidene)andrographolide]
## Result 3

---

system: H522; experiment: Sulforhodamine B growth inhibition, lung H522; assay type: cell-based, human; conditions: Homo sapiens, NCI-H522, 48 h, SRB, read-out: GROWTH INHIBITION (GI 50)
Would you mind telling me the reported GI50 of each entry?
// units = µM; emit number, no label

## Task # GI50 lookup, item C=C1CCC2[C@](C)(CO)[C@H](O)CC[C@]2(C)[C@H]1C/C=C1/C(=O)OC[C@H]1OC(=O)c1ccccc1 (some centres unmarked) [Example 14, 14-Benzoyl andrographolide]
## Result 7.5

## Task # GI50 lookup, item C=C1CCC2[C@](C)(CO)[C@H](O)CC[C@]2(C)[C@H]1C/C=C1/C(=O)OC[C@H]1OCc1ccccc1 (some centres unmarked) [Example 15, 14-Benzyl andrographolide]
## Result 12

## Task # GI50 lookup, item C=C1CCC2[C@](C)(CO)[C@H](O)CC[C@]2(C)[C@H]1C/C=C1/C(=O)OC[C@H]1OC(=O)Nc1ccccc1 (some centres unmarked) [Example 9, 14-phenylcarbamoyl andrographolide]
## Result 12

## Task # GI50 lookup, item C=C1CCC2[C@]3(C)COC(C)(c4ccccc4)O[C@@H]3CC[C@]2(C)[C@H]1C/C=C1/C(=O)OC[C@H]1O (some centres unmarked) [Example 3, 3,19-(1-Phenylethylidene)andrographolide]
## Result 12

## Task # GI50 lookup, item C=C1CC[C@@H]2[C@]3(C)COC(C)(C)O[C@@H]3CC[C@@]2(C)[C@@H]1C/C=C1/C(=O)OC[C@H]1O [Example 1, 3,19-isopropylidene andrographolide]
## Result 14

---

Would you mind telling me the reported GI50 of each entry?
tested on: HT29; experiment: Sulforhodamine B growth inhibition, colon HT29; format: cell-based, human; details: Homo sapiens, HT-29, 48 h, SRB, read-out: GROWTH INHIBITION (GI 50)

## Task # GI50 lookup, item C=C1CC[C@@H]2[C@]3(C)COC(C)(C)O[C@@H]3CC[C@@]2(C)[C@@H]1C/C=C1/C(=O)OC[C@H]1O [Example 1, 3,19-isopropylidene andrographolide]
## Result 2 µM

## Task # GI50 lookup, item C=C1CCC2[C@](C)(CO)[C@H](O)CC[C@]2(C)[C@H]1C/C=C1/C(=O)OC[C@H]1OC(=O)c1ccccc1 (some centres unmarked) [Example 14, 14-Benzoyl andrographolide]
## Result 4 µM

## Task # GI50 lookup, item C=C1CCC2[C@](C)(CO)[C@H](O)CC[C@]2(C)[C@H]1C/C=C1/C(=O)OC[C@H]1OC(=O)Nc1ccccc1 (some centres unmarked) [Example 9, 14-phenylcarbamoyl andrographolide]
## Result 4 µM

## Task # GI50 lookup, item C=C1CCC2[C@](C)(CO)[C@H](O)CC[C@]2(C)[C@H]1C/C=C1/C(=O)OC[C@H]1OCc1ccccc1 (some centres unmarked) [Example 15, 14-Benzyl andrographolide]
## Result 3.5 µM

## Task # GI50 lookup, item C=C1CCC2[C@]3(C)COC(C)(c4ccccc4)O[C@@H]3CC[C@]2(C)[C@H]1C/C=C1/C(=O)OC[C@H]1O (some centres unmarked) [Example 3, 3,19-(1-Phenylethylidene)andrographolide]
## Result 2 µM

---

metric: melting point

## Task # melting point lookup, item C=C1CCC2[C@]3(C)COC(c4ccccc4)O[C@@H]3CC[C@]2(C)[C@H]1C/C=C1/C(=O)OC[C@H]1O (stereo partly drawn) [Example 2, 3,19-Benzylidene andrographolide]
## Result 142 to 143 °C

## Task # melting point lookup, item C=C1CCC2[C@](C)(CO)[C@H](O)CC[C@]2(C)[C@H]1C/C=C1/C(=O)OC[C@H]1OC(=O)c1ccccc1 (stereo partly drawn) [Example 14, 14-Benzoyl andrographolide]
## Result 85.5 to 87 °C

## Task # melting point lookup, item C=C1CCC2[C@]3(C)COC(C)(c4ccccc4)O[C@@H]3CC[C@]2(C)[C@H]1C/C=C1/C(=O)OC[C@H]1O (stereo partly drawn) [Example 3, 3,19-(1-Phenylethylidene)andrographolide]
## Result 201 to 203 °C
